Tested on: HEK-293T
Assay: Multiplex assay against HEK293T
Assay type: toxicity, cell-based
Conditions: human, 48 h, 1 µM, compound concentration 1 uM, replicate 1
Non-standard residues stand in square brackets, D forms with d. Residues, ends and D or L forms follow the SMILES beside them.
The entries below are paired with their reported Population Apoptotic (%).
Could you give me the number in %? Just the number is fine.

Some compounds with recorded Population Apoptotic (%):
- CC(C)C[C@@H]1NC(=O)[C@@H](C(C)C)NC(=O)[C@@H]2CCCN2C(=O)[C@@H](CC(=O)O)NC(=O)[C@@H](Cc2c[nH]c3ccccc23)NC1=O [BQ-123] (cyclo(L[dW][dD]P[dV])): 21
- CN(C)C/C=C/C(=O)Nc1ccc(C(=O)N2CCCC(Nc3ncc(Cl)c(-c4c[nH]c5ccccc45)n3)C2)cc1 (centres undefined): 67

*Q* If you can, please state the reported Population Apoptotic (%) value of COc1cc(C(=O)N2CC[C@@H](O)[C@@H](N)C2)cc2nc(-c3cc4ccccc4n3CC3CC3)n(C)c12.Cl .
*A* 24

*Q* For the compound O=c1nc2[nH]c3ccccc3nc-2c(=O)[nH]1 , what Population Apoptotic (%) is on record?
*A* 32

*Q* Consider the compound shown here: CCCCC[C@H](O)/C=C/[C@H]1[C@H](O)CC(=O)[C@@H]1CCCCCCC(=O)O What is its recorded Population Apoptotic (%)?
*A* 32

*Q* Reported Population Apoptotic (%) for OCCCNc1cc(-c2ccnc(Nc3cccc(Cl)c3)n2)ccn1 : what is it?
*A* 82

*Q* Value lookup for Population Apoptotic (%); key = CN1CCN(c2ccc(Nc3c4ccccc4nc4ccccc34)cc2)CC1.Cl.Cl.O
*A* 45

*Q* Sample C[C@H](NC(=O)CNC(=O)c1cccc(Cl)c1)c1ccccc1 — what was its Population Apoptotic (%)?
*A* 19

*Q* Reported Population Apoptotic (%), compound COc1cc2nc(N3CCN(C(=O)c4ccco4)CC3)nc(N)c2cc1OC.Cl [PRAZOSIN HYDROCHLORIDE] : ____
*A* 36
